Kindly state combination Emax for each of the entries shown.
Test system: KU812 (Chronic Myelogenous Leukemia)
Test name: combination Emax (second highest fraction inhibited in the dose matrix, 72 h); higher = more inhibition; extreme values may be limits of the assay
Give your answer as a number; write no unit.

The reported KU812 (Chronic Myelogenous Leukemia) combination Emax of CCc1c2c(nc3ccc(O)cc13)-c1cc3c(c(=O)n1C2)COC(=O)[C@]3(O)CC [SN-38] + O=C(c1cc(Cc2n[nH]c(=O)c3ccccc23)ccc1F)N1CCN(C(=O)C2CC2)CC1 [Olaparib] (first compound max 0.3 µM, 7x7, partner max 10 µM) is 0.756

The reported KU812 (Chronic Myelogenous Leukemia) combination Emax of NC1(C(=O)N[C@@H](CCO)c2ccc(Cl)cc2)CCN(c2ncnc3[nH]ccc23)CC1 [Capivasertib] + CC(C)n1c(=O)n(C)c2cnc3cc(F)c(-c4ccc(OCCCN5CCCCC5)nc4)cc3c21 [AZD1390] (first compound max 10 µM, 7x7, partner max 0.3 µM) is 0.48

The reported KU812 (Chronic Myelogenous Leukemia) combination Emax of CN(CCO)CC[C@H](CSc1ccccc1)Nc1ccc(S(=O)(=O)NC(=O)c2ccc(N3CCC([C@@H](O)c4ccccc4-c4ccc(Cl)cc4)CC3)cc2)cc1S(=O)(=O)C(F)(F)F [AZD4320] + CC(=O)O[C@H]1C(=O)[C@@]2(C)[C@H]([C@H](OC(=O)c3ccccc3)[C@]3(O)C[C@H](OC(=O)[C@H](O)[C@@H](NC(=O)c4ccccc4)c4ccccc4)C(C)=C1C3(C)C)[C@]1(OC(C)=O)CO[C@@H]1C[C@@H]2O [Paclitaxel] (first compound max 1 µM, 7x7, partner max 3 µM) is 0.943
